Values compiled from a protein production outcome set (Wang et al. 2014).

Assay: label from the status in PepcDB records

SEQUENCE	protein production
MVLPPVFYLARMWLMSQDSRVFFRIFFGIGLVLILISVVIFYNQFTYSKDAIHTEGVIVDTVWHSSHSHRTGKNGSWYPVVAFRPTPDYTLIFNSSIGSDFYEDSEGDKVNVYYSPGHPEKAEINNPWVNFFKWGFIGIMGVIFISVGLLISMPSSKKTRRKRKSRP	failed
MSLSVLDAPASQPCCPTGVTPEPSSRGPSARRVALLLAGALVAWIVAYAAAHPLSRWLTFGLLGLAEGSHLGESLAFFLYDVPKVLLLLTLIVFLVGIVRSFFTAERTRAILVGKRESVGNVVAALLGVVTPFCSCSAIPLFLGFVEVGVPLGVTFSFLVSAPMVNEVALVLLLGLFGWKVAALYLVTGLTIAILAGFVLGRMKLERHVEPWVYESMKGEARFEKEHLGFAGRVERGLQAVREVVGKVWPWVVAGIAVGAGIHGYVPEGLLASFMGKSAWWSVPAAVALGVPMYSNAAGIIPVVEALLGKGAALGTVLAFMMAVIGLSLPEIVILRKVLRPPLILAFVGVVASGILLVGWLFNAVL	failed
